Where do the numbers come from? From patent US4472433A.

# Tested on: contraction induced by arachidonic acid
# test description: Arachidonic acid-induced contraction of isolated stomach fundus strip
# Set-up: species or system Sprague-Dawley rats
# condition context: rat stomach fundus strip, arachidonic acid 1.0×10^-5 g/ml as spasmogen, compound added 15 minutes before
endpoint: ED50

Nc1c(CC(=O)[O-])cccc1Oc1ccccc1F.[Na+] = 1.6 µg/mL
Nc1c(CC(=O)[O-])cccc1Oc1cccc(Cl)c1.[Na+] = 1.7 µg/mL
Nc1c(CC(=O)[O-])cccc1Oc1c(Cl)cccc1Cl.[Na+] = 2.4 µg/mL
Nc1c(CC(=O)[O-])cccc1Oc1cc(Cl)cc(Cl)c1.[Na+] = 0.16 µg/mL
Cc1ccccc1Oc1cccc(CC(=O)[O-])c1N.[Na+] = 2.5 µg/mL

Please examine the following record next.
Inquiry: Given Nc1c(CC(=O)[O-])cccc1Oc1ccccc1Cl.[Na+] , respond with its ED50.
Reply text: 1.3 µg/mL
